subject.of.test: MurC (UniProt C4ZRI6)
Sequence (C4ZRI6 whole entry, looked up): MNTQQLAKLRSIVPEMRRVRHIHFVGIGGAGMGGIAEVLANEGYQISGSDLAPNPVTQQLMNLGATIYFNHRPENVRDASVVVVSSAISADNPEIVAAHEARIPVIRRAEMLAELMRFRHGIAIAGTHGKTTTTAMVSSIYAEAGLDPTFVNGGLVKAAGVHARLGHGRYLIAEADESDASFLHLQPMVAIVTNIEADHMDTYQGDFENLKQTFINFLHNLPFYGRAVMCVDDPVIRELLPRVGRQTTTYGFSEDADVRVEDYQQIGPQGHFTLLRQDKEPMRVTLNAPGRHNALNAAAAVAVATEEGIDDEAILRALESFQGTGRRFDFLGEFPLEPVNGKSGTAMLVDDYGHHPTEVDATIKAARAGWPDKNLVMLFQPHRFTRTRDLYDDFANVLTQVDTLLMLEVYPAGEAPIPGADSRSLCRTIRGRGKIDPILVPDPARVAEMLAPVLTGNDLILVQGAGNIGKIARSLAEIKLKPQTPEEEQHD
procedure.details: relative enzymatic activity vs untreated control (fraction); higher = less inhibition
condition.notes: 100 µM; incubation time: 2 h at 37 C
Give relative enzymatic activity for every item shown.

compound | subject.of.test | relative enzymatic activity
CC1CCc2c(N3CCC(O)CC3)c(F)cc3c(=O)c(C(=O)O)cn1c23 (configuration not stated) | MurC (UniProt C4ZRI6) | 0.92
CC(C)[C@@H](CC[C@@H](C)[C@H]1CC[C@H]2[C@@H]3[C@H](O)C[C@H]4C[C@@H](NCCCNCCCCN)CC[C@]4(C)[C@H]3CC[C@]12C)OS(=O)(=O)O | MurC (UniProt C4ZRI6) | 0.882
NCC1OC(OC2C(N)CC(N)C(OC3OC(CO)C(O)C(N)C3O)C2O)C(N)CC1O (configuration not stated) | MurC (UniProt C4ZRI6) | 1.11
N[C@H]1CCN(c2nc3c(cc2F)c(=O)c(C(=O)O)cn3-c2ccc(F)cc2F)C1 | MurC (UniProt C4ZRI6) | 0.934
Cn1cc(-c2[nH]c3cc(NC(=O)[C@H](N)C4CCCCC4)cc4c3c2C=NNC4=O)cn1 | MurC (UniProt C4ZRI6) | 0.943
CC1c2cccc(O)c2C(=O)C2=C(O)C3(O)C(=O)C(C(N)=O)=C(O)C(N(C)C)C3C(O)C21.Cl (configuration not stated) | MurC (UniProt C4ZRI6) | 1.02

Answer for every listed entry: what is its relative enzymatic activity? The entries follow.
1. Cc1ccc(S(=O)(=O)O)cc1.NC1CCN(c2nc3c(cc2F)c(=O)c(C(=O)O)cn3-c2ccc(F)cc2F)C1.O (configuration not stated)
2. Cn1nnnc1SCC1=C(C(=O)[O-])N2C(=O)C(NC(=O)C(O)c3ccccc3)C2SC1.[Na+] (configuration not stated)
3. CN(C)[C@@H]1C(=O)[C@@H](C(N)=O)C(=O)[C@@]2(O)C(=O)[C@H]3C(=O)c4c(O)ccc(Cl)c4[C@@H](O)[C@H]3C[C@@H]12

-- reply
0.988
1.09
1.01

###

subject.of.test: DNA primase (UniProt P0ABS7)
Sequence (P0ABS7 whole entry): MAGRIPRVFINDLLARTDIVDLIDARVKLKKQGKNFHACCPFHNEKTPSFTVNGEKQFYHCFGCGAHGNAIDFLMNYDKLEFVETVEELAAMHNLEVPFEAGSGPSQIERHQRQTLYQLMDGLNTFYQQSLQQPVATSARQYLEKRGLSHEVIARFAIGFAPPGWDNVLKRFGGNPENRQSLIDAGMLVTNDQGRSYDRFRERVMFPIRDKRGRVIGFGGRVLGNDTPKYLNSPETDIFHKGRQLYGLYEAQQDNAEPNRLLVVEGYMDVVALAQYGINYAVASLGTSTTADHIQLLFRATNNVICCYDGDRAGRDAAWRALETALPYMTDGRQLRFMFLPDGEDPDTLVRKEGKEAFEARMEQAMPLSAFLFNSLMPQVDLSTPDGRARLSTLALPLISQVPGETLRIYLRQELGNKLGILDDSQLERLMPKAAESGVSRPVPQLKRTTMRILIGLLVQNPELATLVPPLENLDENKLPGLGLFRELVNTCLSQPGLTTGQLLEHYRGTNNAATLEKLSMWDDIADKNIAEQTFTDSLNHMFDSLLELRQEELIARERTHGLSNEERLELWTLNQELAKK
procedure.details: relative enzymatic activity vs untreated control (fraction); higher = less inhibition
condition.notes: 100 µM; incubation time: 2 h at 37 C
Label t when relative enzymatic activity is at or above 0.8; otherwise label f.

compound | answer.label
CC(N)O.Cc1cc(CC(C)CC(C)(C)C)n(O)c(=O)c1 (stereo not drawn) | f
COc1ccc2c(c1OC)C(=O)OC2C1c2c(cc3c(c2OC)OCO3)CCN1C.Cl (stereo not drawn) | t
CC1CCc2c(N3CCC(O)CC3)c(F)cc3c(=O)c(C(=O)O)cn1c23 (stereo not drawn) | t

-- ask Check if relative enzymatic activity >= 0.8 (inclusive). Item: Cc1cc(O)c(C(=O)NC(C(=O)NC2C(=O)N3C(C(=O)O)=C(CSc4nnnn4C)CSC23)c2ccc(O)cc2)cn1 (stereo not drawn)
-- reply t

-- ask Next entry: CON=C(C(=O)NC1C(=O)N2C(C(=O)O)=C(CSC(=O)c3ccco3)CSC12)c1csc(N)n1.Cl (stereo not drawn)
-- reply f

-- ask Likewise for O=C1OCCN1N=Cc1ccc([N+](=O)[O-])o1 ?
-- reply f

-- ask Please do the same for NCC1OC(OC2C(N)CC(N)C(OC3OC(CO)C(O)C(N)C3O)C2O)C(N)CC1O (stereo not drawn) as well.
-- reply f

###

subject.of.test: GlmU (UniProt A7ZTU1)
Sequence (A7ZTU1 whole entry, looked up): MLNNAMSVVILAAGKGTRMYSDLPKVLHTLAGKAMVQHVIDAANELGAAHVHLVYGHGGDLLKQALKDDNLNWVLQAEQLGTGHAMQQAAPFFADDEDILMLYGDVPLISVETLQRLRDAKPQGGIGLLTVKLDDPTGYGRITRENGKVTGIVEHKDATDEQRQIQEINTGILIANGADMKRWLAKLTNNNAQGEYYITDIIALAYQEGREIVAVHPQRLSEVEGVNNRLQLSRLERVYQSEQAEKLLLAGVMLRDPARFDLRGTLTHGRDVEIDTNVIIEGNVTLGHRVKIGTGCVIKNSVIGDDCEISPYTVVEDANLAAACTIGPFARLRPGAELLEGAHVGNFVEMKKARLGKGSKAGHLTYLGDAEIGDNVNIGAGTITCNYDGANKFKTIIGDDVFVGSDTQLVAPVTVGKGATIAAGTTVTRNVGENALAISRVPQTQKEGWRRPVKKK
procedure.details: relative enzymatic activity vs untreated control (fraction); higher = less inhibition
condition.notes: 100 µM; incubation time: 2 h at 37 C
metric: relative enzymatic activity

compound | relative enzymatic activity
CS(=O)(=O)c1ccc(C(O)C(CF)NC(=O)C(Cl)Cl)cc1 (stereo not drawn) | 0.977
CC1(C)S[C@@H]2[C@H](NC(=O)[C@H](NC(=O)N3CCNC3=O)c3ccccc3)C(=O)N2[C@H]1C(=O)O | 0.998
Cl.NC1CCN(c2c(F)cc3c(=O)c(C(=O)O)cn(C4CC4)c3c2Cl)C1 (stereo not drawn) | 0.974
O=C(O)P(=O)(O)O | 1
Cc1ccc(S(=O)(=O)O)cc1.NC1CCN(c2nc3c(cc2F)c(=O)c(C(=O)O)cn3-c2ccc(F)cc2F)C1.O (stereo not drawn) | 0.991
CC[C@H]1OC(=O)[C@H](C)[C@@H](O[C@H]2C[C@@](C)(OC)[C@@H](O)[C@H](C)O2)[C@H](C)[C@@H](O[C@@H]2O[C@H](C)C[C@H](N(C)C)[C@H]2O)[C@](C)(O)C[C@@H](C)CN(C)[C@H](C)[C@@H](O)[C@]1(C)O | 0.99
CC(=O)OCC1=C(C(=O)[O-])N2C(=O)C(NC(=O)Cc3cccs3)C2SC1.[Na+] (stereo not drawn) | 1

Now examine the next entry.
-- ask Give the reported relative enzymatic activity for C[C@H]1COc2c(C3(N)CC3)c(F)cc3c(=O)c(C(=O)O)cn1c23 (system: GlmU (UniProt A7ZTU1)).
-- reply 0.995

###

subject.of.test: GlmU (UniProt A7ZTU1)
procedure.details: relative enzymatic activity vs untreated control (fraction); higher = less inhibition
condition.notes: 100 µM; incubation time: 2 h at 37 C
Hi there, I'd appreciate the recorded relative enzymatic activity for every entry that follows.

Worked set:
compound | relative enzymatic activity
CN(C)C1C(O)=C(C(N)=O)C(=O)C2(O)C(O)=C3C(=O)c4c(O)ccc(Cl)c4C(O)C3CC12.Cl (configuration not stated) | 1
CN[C@@H]1[C@H](O[C@H]2[C@H](O[C@@H]3[C@@H](O)[C@H](O)[C@@H](NC(=N)N)[C@H](O)[C@H]3NC(=N)N)O[C@@H](C)[C@]2(O)CO)O[C@@H](CO)[C@H](O)[C@H]1O.CN[C@@H]1[C@H](O[C@H]2[C@H](O[C@@H]3[C@@H](O)[C@H](O)[C@@H](NC(=N)N)[C@H](O)[C@H]3NC(=N)N)O[C@@H](C)[C@]2(O)CO)O[C@@H](CO)[C@H](O)[C@H]1O | 1

Hello, I would appreciate it if you could give relative enzymatic activity for each entry below.
1. Cc1c(N)nc([C@H](CC(N)=O)NC[C@H](N)C(N)=O)nc1C(=O)N[C@H](C(=O)N[C@H](C)[C@@H](O)[C@H](C)C(=O)N[C@H](C(=O)NCCc1nc(-c2nc(C(=O)NCCCNCCCCN)cs2)cs1)[C@@H](C)O)[C@@H](O[C@@H]1O[C@@H](CO)[C@@H](O)[C@H](O)[C@@H]1O[C@@H]1O[C@H](CO)[C@@H](O)[C@H](OC(N)=O)[C@@H]1O)c1c[nH]cn1
2. O=C([O-])CCC(=O)OCC(NC(=O)C(Cl)Cl)C(O)c1ccc([N+](=O)[O-])cc1.[Na+] (configuration not stated)
3. NC[C@H]1O[C@H](O[C@H]2[C@H](O)[C@@H](O[C@H]3O[C@H](CO)[C@@H](O)[C@H](N)[C@H]3O)[C@H](N)C[C@@H]2N)[C@H](N)C[C@@H]1O
4. C=CC1=C(C(=O)O)N2C(=O)[C@@H](NC(=O)/C(=N/O)c3csc(N)n3)[C@H]2SC1
5. NCC1OC(OC2C(N)CC(N)C(OC3OC(CO)C(O)C(N)C3O)C2O)C(N)CC1O (configuration not stated)

-- reply
[0.988, 1.02, 1.02, 1, 0.979]

###

Please respond with reported relative enzymatic activity for every item in the list.
subject.of.test: DNA polymerase (UniProt P10443)
Sequence (P10443 whole entry): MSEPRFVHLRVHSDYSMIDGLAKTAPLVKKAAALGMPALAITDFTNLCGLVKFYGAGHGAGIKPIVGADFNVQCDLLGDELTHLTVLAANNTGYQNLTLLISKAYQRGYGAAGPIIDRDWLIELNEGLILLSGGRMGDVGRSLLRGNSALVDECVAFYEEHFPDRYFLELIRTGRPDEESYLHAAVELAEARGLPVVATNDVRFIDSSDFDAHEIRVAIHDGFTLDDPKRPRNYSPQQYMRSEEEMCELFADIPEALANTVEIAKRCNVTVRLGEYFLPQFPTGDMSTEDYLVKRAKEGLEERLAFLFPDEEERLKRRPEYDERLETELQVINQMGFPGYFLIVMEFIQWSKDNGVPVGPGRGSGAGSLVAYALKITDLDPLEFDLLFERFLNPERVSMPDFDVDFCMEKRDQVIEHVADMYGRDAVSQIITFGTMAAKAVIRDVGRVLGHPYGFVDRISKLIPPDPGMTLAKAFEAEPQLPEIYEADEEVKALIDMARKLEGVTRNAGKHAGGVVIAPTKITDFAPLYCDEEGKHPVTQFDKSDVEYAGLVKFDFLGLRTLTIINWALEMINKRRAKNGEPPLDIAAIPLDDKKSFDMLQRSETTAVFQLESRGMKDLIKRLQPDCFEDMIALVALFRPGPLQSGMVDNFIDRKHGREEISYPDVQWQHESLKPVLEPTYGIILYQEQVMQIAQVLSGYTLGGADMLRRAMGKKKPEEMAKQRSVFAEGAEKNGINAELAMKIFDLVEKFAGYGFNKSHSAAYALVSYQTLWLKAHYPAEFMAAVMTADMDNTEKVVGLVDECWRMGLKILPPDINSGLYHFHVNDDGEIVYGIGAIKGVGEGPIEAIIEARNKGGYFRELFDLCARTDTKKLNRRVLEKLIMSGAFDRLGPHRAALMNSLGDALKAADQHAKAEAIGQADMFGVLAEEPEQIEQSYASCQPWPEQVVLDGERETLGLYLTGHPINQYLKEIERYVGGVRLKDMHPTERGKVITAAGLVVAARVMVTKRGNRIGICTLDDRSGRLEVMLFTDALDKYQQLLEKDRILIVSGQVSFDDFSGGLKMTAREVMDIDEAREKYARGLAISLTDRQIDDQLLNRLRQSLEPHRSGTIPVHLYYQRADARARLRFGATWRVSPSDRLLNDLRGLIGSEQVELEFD
procedure.details: relative enzymatic activity vs untreated control (fraction); higher = less inhibition
condition.notes: 100 µM; incubation time: 2 h at 37 C
Numbers only.

Each compound below has a recorded value; state its relative enzymatic activity.
1. O=C1CN(/N=C/c2ccc([N+](=O)[O-])o2)C(=O)N1
2. CC[C@H]1OC(=O)[C@H](C)[C@@H](O[C@H]2C[C@@](C)(OC)[C@@H](O)[C@H](C)O2)[C@H](C)[C@@H](O[C@@H]2O[C@H](C)C[C@H](N(C)C)[C@H]2O)[C@](C)(OC)C[C@@H](C)C(=O)[C@H](C)[C@@H](O)[C@]1(C)O

-- reply
1: 0.649; 2: 1.15

-- ask Given the entry CS(=O)(=O)c1ccc(C(O)C(CF)NC(=O)C(Cl)Cl)cc1 (stereo not drawn) , report its measured relative enzymatic activity.
-- reply 1.29

###

subject.of.test: DNA primase (UniProt P0ABS7)
procedure.details: relative enzymatic activity vs untreated control (fraction); higher = less inhibition
condition.notes: 100 µM; incubation time: 2 h at 37 C
# class assignment by measured relative enzymatic activity: class 0: < 0.7; class 1: ≥ 0.7 and < 0.8; class 2: ≥ 0.8

compound | answer.label
Cc1cc(C(C)(C)CC(C)(C)C)ccc1OCCOCC[N+](C)(C)Cc1ccccc1.[Cl-] | class 0
CS(=O)(=O)c1ccc(C(O)C(CF)NC(=O)C(Cl)Cl)cc1 (configuration not stated) | class 2
CON=C(C(=O)NC1C(=O)N2C(C(=O)O)=C(C[N+]3(C)CCCC3)CSC12)c1csc(N)n1.[Cl-] (configuration not stated) | class 1
CC1COc2c(N3CCN(C)CC3)c(F)cc3c(=O)c(C(=O)O)cn1c23 (configuration not stated) | class 1
O=c1[nH]cc(F)c(=O)[nH]1 | class 2

Turning now to a further record.
-- ask # bin lookup: classify CC[C@H]1OC(=O)[C@H](C)[C@@H](O[C@H]2C[C@@](C)(OC)[C@@H](O)[C@H](C)O2)[C@H](C)[C@@H](O[C@@H]2O[C@H](C)C[C@H](N(C)C)[C@H]2O)[C@](C)(O)C[C@@H](C)C(=O)[C@H](C)[C@@H](O)[C@]1(C)O by its relative enzymatic activity
-- reply class 2
